# tested-system: Full-length inactive AKT1 (Homo sapiens, UniProt P31749)
# Sequence (P31749 whole entry): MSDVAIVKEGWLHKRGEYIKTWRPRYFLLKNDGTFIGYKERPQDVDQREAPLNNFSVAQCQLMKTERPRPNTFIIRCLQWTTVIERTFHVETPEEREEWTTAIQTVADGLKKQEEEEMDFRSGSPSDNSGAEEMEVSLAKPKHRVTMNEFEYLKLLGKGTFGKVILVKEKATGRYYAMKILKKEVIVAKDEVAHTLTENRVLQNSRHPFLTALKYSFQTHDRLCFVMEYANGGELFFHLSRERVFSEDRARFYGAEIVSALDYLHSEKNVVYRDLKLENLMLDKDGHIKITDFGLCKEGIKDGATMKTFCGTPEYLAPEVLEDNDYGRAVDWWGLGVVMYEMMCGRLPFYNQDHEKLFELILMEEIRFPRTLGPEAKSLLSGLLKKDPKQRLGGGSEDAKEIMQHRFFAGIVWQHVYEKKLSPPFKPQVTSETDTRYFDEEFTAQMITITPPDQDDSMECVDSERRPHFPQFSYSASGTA
# experiment-description: Inactive Akt Alpha Screen Assay
# Type: biochemical
# condition-context: values not marked with "*": AlphaScreen assay; read-out: Akt1 IC50, (AlphaScreen)
Cut-off 1 µM on IC50: below means Satisfied, at or above means Not satisfied.

{"query-smiles": "Nc1ncccc1-c1nc2cc(Br)cnc2n1-c1ccc(CNS(=O)(=O)c2ccc(F)c(Cl)c2)cc1", "class-name": "Not satisfied"}
{"query-smiles": "Nc1ncccc1-c1nc2cccnc2n1-c1ccc(CNC(=O)c2nccc3ccccc23)cc1", "class-name": "Satisfied"}
{"query-smiles": "Nc1ncccc1-c1nc2cc(-c3ccc(Br)cc3)cnc2n1-c1ccc(CNC(=O)c2ccccc2)cc1", "class-name": "Satisfied"}
{"query-smiles": "Nc1ncccc1-c1nc2cccnc2n1-c1ccc(CNC(=O)c2ccc3c(c2)CCO3)cc1", "class-name": "Not satisfied"}
{"query-smiles": "Nc1ncccc1-c1nc2cccnc2n1-c1ccc(CNC(=O)Nc2ccccc2Cl)cc1", "class-name": "Satisfied"}

**Query** Would you kindly verify if IC50 of CCCCS(=O)(=O)NCc1ccc(-n2c(-c3cccnc3N)nc3cc(Br)cnc32)cc1 is strictly less than 1 µM?
**Result** Satisfied

**Query** Would you kindly verify if IC50 of Nc1ncccc1-c1nc2cccnc2n1-c1ccc(CNCc2ccccc2)cc1 is strictly less than 1 µM?
**Result** Satisfied

**Query** Would you kindly verify if IC50 of CC(C)CS(=O)(=O)NCc1ccc(-n2c(-c3cccnc3N)nc3cc(Br)cnc32)cc1 is strictly less than 1 µM?
**Result** Satisfied

**Query** Would you kindly verify if IC50 of CC(C)(C)OC(=O)NCc1ccc(-n2c(-c3cccnc3N)nc3cccnc32)cc1 is strictly less than 1 µM?
**Result** Not satisfied

**Query** Would you kindly verify if IC50 of Nc1ncccc1-c1nc2cccnc2n1-c1ccc(CN2CCOCC2)cc1 is strictly less than 1 µM?
**Result** Not satisfied

**Query** Would you kindly verify if IC50 of Nc1ncccc1-c1nc2cccnc2n1-c1ccc(CC(=O)N2CCC(n3c(=O)[nH]c4ccccc43)CC2)cc1 is strictly less than 1 µM?
**Result** Not satisfied

**Query** Would you kindly verify if IC50 of CC1=NN(c2ccc(C(=O)NCc3ccc(-n4c(-c5cccnc5N)nc5cccnc54)cc3)cc2)C(=O)C1 is strictly less than 1 µM?
**Result** Not satisfied
